Molecular target: Interstitial collagenase (Homo sapiens, UniProt P03956)
Sequence (P03956 whole entry): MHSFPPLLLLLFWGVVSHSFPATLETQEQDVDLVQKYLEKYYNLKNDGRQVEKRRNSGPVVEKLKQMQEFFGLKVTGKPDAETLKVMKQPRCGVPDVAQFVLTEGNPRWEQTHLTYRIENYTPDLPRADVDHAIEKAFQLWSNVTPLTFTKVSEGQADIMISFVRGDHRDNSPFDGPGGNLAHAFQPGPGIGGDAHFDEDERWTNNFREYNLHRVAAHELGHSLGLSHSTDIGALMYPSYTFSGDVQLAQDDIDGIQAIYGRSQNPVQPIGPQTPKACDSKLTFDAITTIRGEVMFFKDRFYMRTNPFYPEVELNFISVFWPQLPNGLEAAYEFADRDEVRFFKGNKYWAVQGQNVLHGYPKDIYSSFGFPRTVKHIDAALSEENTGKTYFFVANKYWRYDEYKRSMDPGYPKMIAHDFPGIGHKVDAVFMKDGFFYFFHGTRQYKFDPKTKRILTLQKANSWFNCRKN
measurement-kind: IC50 (µM)
Lab book: enter the figure in µM, no units written.

# input What measured IC50 is associated with `Cc1cc(C#N)ccc1N1CCN(S(=O)(=O)N2CSC[C@@H]2C(=O)NO)CC1` on Interstitial collagenase (Homo sapiens, UniProt P03956)?
# output 346

----------
target: Disintegrin and metalloproteinase domain-containing protein 17 (Homo sapiens); assay: Inhibition of ADAM-17 in human KM-H2 cells assessed as reduction in pervanadate-induced soluble ALCAM shedding after 24 hrs by ELISA; assay type: cell-based
Sequence (P78536 whole entry, the tested form may be a part): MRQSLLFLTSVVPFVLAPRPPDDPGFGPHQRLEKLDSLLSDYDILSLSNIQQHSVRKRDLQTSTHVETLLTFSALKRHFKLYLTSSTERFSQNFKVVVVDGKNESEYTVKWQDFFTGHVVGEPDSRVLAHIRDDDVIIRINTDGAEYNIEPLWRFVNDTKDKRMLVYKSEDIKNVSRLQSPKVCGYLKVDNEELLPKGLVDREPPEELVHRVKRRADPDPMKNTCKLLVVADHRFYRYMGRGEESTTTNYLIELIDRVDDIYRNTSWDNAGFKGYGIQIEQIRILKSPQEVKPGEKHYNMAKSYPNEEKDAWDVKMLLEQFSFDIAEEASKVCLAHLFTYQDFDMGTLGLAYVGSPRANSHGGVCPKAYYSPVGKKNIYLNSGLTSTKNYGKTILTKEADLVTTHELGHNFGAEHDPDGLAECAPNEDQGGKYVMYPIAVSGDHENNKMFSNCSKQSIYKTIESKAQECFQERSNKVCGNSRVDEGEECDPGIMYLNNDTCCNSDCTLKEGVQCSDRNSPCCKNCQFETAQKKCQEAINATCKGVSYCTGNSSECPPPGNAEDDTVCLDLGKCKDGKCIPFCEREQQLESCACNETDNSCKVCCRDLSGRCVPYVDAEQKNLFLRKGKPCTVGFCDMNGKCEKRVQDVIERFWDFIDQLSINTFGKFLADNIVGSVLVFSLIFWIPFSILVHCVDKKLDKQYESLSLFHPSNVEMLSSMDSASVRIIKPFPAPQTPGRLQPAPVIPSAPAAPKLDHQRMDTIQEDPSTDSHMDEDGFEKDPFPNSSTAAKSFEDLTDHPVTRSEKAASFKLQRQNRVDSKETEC
measurement-kind: IC50 (µM)
Write down the numeric answer in µM and omit the unit.

{"given-smiles": "Cc1cc(C#N)ccc1N1CCN(S(=O)(=O)N[C@H](CCCNC(=O)OCc2ccccc2)C(=O)NO)CC1", "system": "Disintegrin and metalloproteinase domain-containing protein 17 (Homo sapiens)", "measurement-kind": "IC50", "reading": 1}
{"given-smiles": "CNC(=O)[C@@H](NC(=O)[C@H](CCCc1ccccc1)[C@H](C)N(O)C=O)C(C)(C)C", "system": "Disintegrin and metalloproteinase domain-containing protein 17 (Homo sapiens)", "measurement-kind": "IC50", "reading": 10}
{"given-smiles": "Cc1cc(C#N)ccc1N1CCN(S(=O)(=O)N2CSC[C@@H]2C(=O)NO)CC1", "system": "Disintegrin and metalloproteinase domain-containing protein 17 (Homo sapiens)", "measurement-kind": "IC50", "reading": 10}

Could you now consider this next compound?
# input Reported IC50 for `O=C(NCCC[C@@H](NS(=O)(=O)c1ccc(OCc2cc(Br)cc(Br)c2)cc1)C(=O)NO)OCc1ccccc1` : what is it?
# output 0.5

----------
target: Disintegrin and metalloproteinase domain-containing protein 10 (Homo sapiens, UniProt O14672); assay: Inhibition of ADAM-10 in human L540 cells assessed as reduction in pervanadate-induced soluble ULBP3 shedding after 24 hrs by ELISA; type: cell-based, L-540
Sequence (O14672 whole entry, the tested form may be a part): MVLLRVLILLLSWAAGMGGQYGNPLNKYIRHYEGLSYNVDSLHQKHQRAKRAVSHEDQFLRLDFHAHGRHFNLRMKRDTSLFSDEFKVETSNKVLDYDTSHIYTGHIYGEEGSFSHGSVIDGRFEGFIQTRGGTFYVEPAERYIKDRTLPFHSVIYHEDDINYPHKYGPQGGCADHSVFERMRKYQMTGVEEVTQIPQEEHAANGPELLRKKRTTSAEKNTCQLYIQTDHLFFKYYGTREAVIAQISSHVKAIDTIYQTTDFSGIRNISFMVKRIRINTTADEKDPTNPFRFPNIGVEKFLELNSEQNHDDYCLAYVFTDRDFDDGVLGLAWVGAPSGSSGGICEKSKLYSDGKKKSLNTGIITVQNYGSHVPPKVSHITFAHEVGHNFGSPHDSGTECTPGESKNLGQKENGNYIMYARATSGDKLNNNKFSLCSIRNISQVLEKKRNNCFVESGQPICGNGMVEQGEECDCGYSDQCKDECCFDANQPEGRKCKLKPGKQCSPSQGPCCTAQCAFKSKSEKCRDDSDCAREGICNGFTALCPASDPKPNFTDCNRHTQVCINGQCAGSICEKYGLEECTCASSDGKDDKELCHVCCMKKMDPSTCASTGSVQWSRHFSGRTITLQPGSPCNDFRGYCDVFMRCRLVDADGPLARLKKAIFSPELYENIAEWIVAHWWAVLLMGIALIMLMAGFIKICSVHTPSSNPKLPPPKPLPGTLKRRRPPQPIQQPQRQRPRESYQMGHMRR
Consider the following compounds and their measured IC50 readings.
Report the value in µM with no unit label.

Consider the worked cases shown below.
{"given-smiles": "CNC(=O)[C@@H](NC(=O)[C@H](CCCc1ccccc1)[C@H](C)N(O)C=O)C(C)(C)C", "units-label": "µM", "reading": 10}
{"given-smiles": "Cc1cc(C#N)ccc1N1CCN(S(=O)(=O)N[C@H](CCCNC(=O)OCc2ccccc2)C(=O)NO)CC1", "units-label": "µM", "reading": 10}
{"given-smiles": "Cc1cc(C#N)ccc1N1CCN(S(=O)(=O)N2CSC[C@@H]2C(=O)NO)CC1", "units-label": "µM", "reading": 7}

// next item, IC50 requested
# input Which IC50 value is on record for `O=C(NCCC[C@@H](NS(=O)(=O)c1ccc(OCc2cc(Br)cc(Br)c2)cc1)C(=O)NO)OCc1ccccc1` ?
# output 12
